Each entry below lists one item and its recorded F (APRIL) value.
# targetOrSystem: T1, Murine APRIL (mouse, UniProt Q9D777 105-241, limits assumed)
# T1 sequence (looked up): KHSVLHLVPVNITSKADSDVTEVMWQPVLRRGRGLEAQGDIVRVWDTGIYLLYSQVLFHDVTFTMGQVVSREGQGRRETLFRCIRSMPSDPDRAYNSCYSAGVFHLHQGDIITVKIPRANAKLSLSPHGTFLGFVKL
# method: shotgun scan, phage display
// print number alone

binder: SLSCRKEQGKFYDHLLRDCISCASICGQHPKQCAYFCETKLR (receptor, phage library variant, format as m9) [TACI_d2 N106T]
metric: F (APRIL)
observedResult: 1.6
//
binder: SLSCRKEQGKFYDHLLADCISCASICGQHPKQCAYFCENKLR (receptor, phage library variant, format as m9) [TACI_d2 R84A]
metric: F (APRIL)
observedResult: 1.1

Noted for SLSCRKEQGKFYDHLLRDCISCASICGQHPKACAYFCENKLR (receptor, phage library variant, format as m9) [TACI_d2 Q99A] : its F (APRIL) reads 1.9
